experimental_details: Time course of conversion to indirubin in FaSSGF at 37° C.
Format: physicochemical
condition_summary: FaSSGF (Example 4; table title prints FaSSIF) 37° C., 15 min
measurement_label: indirubin (%)

• O=C1/C(=C2/C(=O)N(CN3CCC3)c3ccccc32)Nc2ccccc21 [drawing 275] = 25
• O=C1/C(=C2/C(=O)N(COS(=O)(=O)O)c3ccccc32)Nc2ccccc21 [drawing 277] = 0
• O=C1/C(=C2/C(=O)N(C(=O)NC3CCOCC3)c3ccccc32)Nc2ccccc21 [drawing 278] = 7
• CN(C)C1CCN(CN2C(=O)/C(=C3\Nc4ccccc4C3=O)c3ccccc32)CC1 [drawing 272] = 51
• O=C1/C(=C2/C(=O)N(CN3CCCC3)c3ccccc32)Nc2ccccc21 [drawing 270] = 100
• O=C1/C(=C2/C(=O)N(CN3CCOCC3)c3ccccc32)Nc2ccccc21 [drawing 276] = 7
• O=C1/C(=C2/C(=O)N(CO)c3ccccc32)Nc2ccccc21 [drawing 274] = 8
• CN1CCN(CN2C(=O)/C(=C3\Nc4ccccc4C3=O)c3ccccc32)CC1 [drawing 273] = 23

----------
Property: indirubin methylene alcohol; scope: individual compounds
experimental_details: Time course of conversion to indirubin in FaSSIF at 37° C.
Type: physicochemical
condition_summary: FaSSIF 37° C., 15 min
measurement_label: indirubin methylene alcohol (%)

* CN(C)C1CCN(CN2C(=O)/C(=C3\Nc4ccccc4C3=O)c3ccccc32)CC1 [drawing 256] | 5
* O=C1/C(=C2/C(=O)N(CN3CCCC3)c3ccccc32)Nc2ccccc21 [drawing 255] | 0
* O=C1/C(=C2/C(=O)N(CN3CCC(F)(F)CC3)c3ccccc32)Nc2ccccc21 [drawing 260] | 0
* CCN(CC)CN1C(=O)/C(=C2\Nc3ccccc3C2=O)c2ccccc21 [drawing 252] | 0
* CN(C)CCN(C)CN1C(=O)/C(=C2\Nc3ccccc3C2=O)c2ccccc21 [drawing 253] | 7
* O=C1/C(=C2/C(=O)N(COS(=O)(=O)O)c3ccccc32)Nc2ccccc21 [drawing 262] | 79
* CN(C)CCN(CCN(C)C)CN1C(=O)/C(=C2\Nc3ccccc3C2=O)c2ccccc21 [drawing 257] | 13
* CNCCNC(=O)N1C(=O)/C(=C2\Nc3ccccc3C2=O)c2ccccc21.Cl [drawing 264] | 0
* O=C1/C(=C2/C(=O)N(CN3CCOCC3)c3ccccc32)Nc2ccccc21 [drawing 261] | 0
* CN1CCN(CN2C(=O)/C(=C3\Nc4ccccc4C3=O)c3ccccc32)CC1 [drawing 265] | 0
* O=C1/C(=C2/C(=O)N(CN3CCC3)c3ccccc32)Nc2ccccc21 [drawing 266] | 5
* CC(=O)N1CCN(CN2C(=O)/C(=C3\Nc4ccccc4C3=O)c3ccccc32)CC1 [drawing 258] | 12
* O=C1/C(=C2/C(=O)N(C(=O)NC3CCOCC3)c3ccccc32)Nc2ccccc21 [drawing 263] | 0

----------
Recorded indirubin by entry
experimental_details: Time course of conversion to indirubin in FaSSGF at 37° C.
Type: physicochemical
condition_summary: FaSSGF (Example 4; table title prints FaSSIF) 37° C., 30 min
measurement_label: indirubin (%)

* CC(=O)N1CCN(CN2C(=O)/C(=C3\Nc4ccccc4C3=O)c3ccccc32)CC1 [drawing 281] | 3
* CN(C)CCN(C)CN1C(=O)/C(=C2\Nc3ccccc3C2=O)c2ccccc21 [drawing 268] | 93
* O=C1/C(=C2/C(=O)N(CO)c3ccccc32)Nc2ccccc21 [drawing 274] | 18
* O=C1/C(=C2/C(=O)N(CN3CCOCC3)c3ccccc32)Nc2ccccc21 [drawing 276] | 8
* O=C1/C(=C2/C(=O)N(CN3CCCC3)c3ccccc32)Nc2ccccc21 [drawing 270] | 100
* O=C1/C(=C2/C(=O)N(C(=O)NC3CCOCC3)c3ccccc32)Nc2ccccc21 [drawing 278] | 12
* CN(C)CCN(CCN(C)C)CN1C(=O)/C(=C2\Nc3ccccc3C2=O)c2ccccc21 [drawing 271] | 94
* CN1CCN(CN2C(=O)/C(=C3\Nc4ccccc4C3=O)c3ccccc32)CC1 [drawing 273] | 18
* O=C1/C(=C2/C(=O)N(CN3CCC3)c3ccccc32)Nc2ccccc21 [drawing 275] | 26
* CN(C)C1CCN(CN2C(=O)/C(=C3\Nc4ccccc4C3=O)c3ccccc32)CC1 [drawing 272] | 55
* O=C1/C(=C2/C(=O)N(COS(=O)(=O)O)c3ccccc32)Nc2ccccc21 [drawing 277] | 0
* CNCCNC(=O)N1C(=O)/C(=C2\Nc3ccccc3C2=O)c2ccccc21.Cl [drawing 279] | 0
* O=C1/C(=C2/C(=O)N(CN3CCCCC3)c3ccccc32)Nc2ccccc21 [drawing 269] | 99
* CCN(CC)CN1C(=O)/C(=C2\Nc3ccccc3C2=O)c2ccccc21 [drawing 267] | 100

----------
experimental_details: Time course of conversion to indirubin in FaSSIF at 37° C.
Type: physicochemical
condition_summary: FaSSIF 37° C., 30 min
measurement_label: indirubin methylene alcohol (%)

- O=C1/C(=C2/C(=O)N(COS(=O)(=O)O)c3ccccc32)Nc2ccccc21 [drawing 262]: 73
- CN(C)CCN(C)CN1C(=O)/C(=C2\Nc3ccccc3C2=O)c2ccccc21 [drawing 253]: 7
- CCN(CC)CN1C(=O)/C(=C2\Nc3ccccc3C2=O)c2ccccc21 [drawing 252]: 0
- O=C1/C(=C2/C(=O)N(CN3CCC(F)(F)CC3)c3ccccc32)Nc2ccccc21 [drawing 260]: 0

----------
// Fraction (percent) of starting material (SM) lookup, one value per entry
experimental_details: Stability of indirubin prodrugs in simulated fluids (FaSSIF, FaSSGF), 24 h at 37° C., UPLC-MS
Type: physicochemical
condition_summary: FaSSIF 37° C. 24 h
measurement_label: Fraction (percent) of starting material (SM) (%)

* CCN(CC)CN1C(=O)/C(=C2\Nc3ccccc3C2=O)c2ccccc21 [drawing 221] | 0
* C=CCOC(=O)N1C(=O)/C(=C2\Nc3ccccc3C2=O)c2ccccc21 | 88
* CN1CCN(CCNC(=O)N2C(=O)/C(=C3\Nc4ccccc4C3=O)c3ccccc32)CC1 | 100
* Cl.NCCCNC(=O)N1C(=O)/C(=C2\Nc3ccccc3C2=O)c2ccccc21 | 100
* CC(=O)OCN1C(=O)/C(=C2\Nc3ccccc3C2=O)c2ccccc21 | 100
* CN(C)CCNC(=O)N1C(=O)/C(=C2\Nc3ccccc3C2=O)c2ccccc21 | 100
* CN1CCN(CN2C(=O)/C(=C3\Nc4ccccc4C3=O)c3ccccc32)CC1 [drawing 222] | 50
* CN(C)CCCCNC(=O)N1C(=O)/C(=C2\Nc3ccccc3C2=O)c2ccccc21 | 100
* CN(C)CCCNC(=O)N1C(=O)/C(=C2\Nc3ccccc3C2=O)c2ccccc21 | 94
* CN1CCC(NC(=O)N2C(=O)/C(=C3\Nc4ccccc4C3=O)c3ccccc32)CC1=O (stereo not shown) | 100
* O=C1Nc2ccccc2/C1=C1/Nc2ccccc2/C1=N\O | 100
* CCOC(=O)N1C(=O)/C(=C2\Nc3ccccc3C2=O)c2ccccc21 | 100
* O=C1/C(=C2/C(=O)N(C(=O)NC3CCOCC3)c3ccccc32)Nc2ccccc21 [drawing 236] | 57
* O=C1/C(=C2/C(=O)N(C(=O)NCCNS(=O)(=O)C(F)(F)F)c3ccccc32)Nc2ccccc21 | 100
* CCOC(=O)CCC(=O)N1C(=O)/C(=C2\Nc3ccccc3C2=O)c2ccccc21 | 100
* O=C1/C(=C2/C(=O)N(C(=O)CCCN3CCOCC3)c3ccccc32)Nc2ccccc21 | 100
* CC(=O)NCCNC(=O)N1C(=O)/C(=C2\Nc3ccccc3C2=O)c2ccccc21 | 100
* O=C1/C(=C2/C(=O)N(C(=O)NCCNS(=O)(=O)c3ccc([N+](=O)[O-])cc3)c3ccccc32)Nc2ccccc21 | 100
* O=C1/C(=C2/C(=O)N(COS(=O)(=O)O)c3ccccc32)Nc2ccccc21 [drawing 224] | 0

----------
experimental_details: Time course of conversion to indirubin in FaSSIF at 37° C.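 Further: test compound, about 1-3 mg in 5 mL FaSSIF, sampled and analysed by UPLC-MS with PDA UV (210-400 nm), QDa mass and evaporative light scattering detection.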
Format: physicochemical
condition_summary: FaSSIF 37° C. 24 h
Doc: threshold 70% (exclusive). Items with indirubin beneath it return true; others return false.

- O=C1/C(=C2/C(=O)N(CN3CCCC3)c3ccccc32)Nc2ccccc21 [drawing 255]: false
- CC(=O)N1CCN(CN2C(=O)/C(=C3\Nc4ccccc4C3=O)c3ccccc32)CC1 [drawing 258]: true
- O=C1/C(=C2/C(=O)N(CO)c3ccccc32)Nc2ccccc21 [drawing 259]: true
- CNCCNC(=O)N1C(=O)/C(=C2\Nc3ccccc3C2=O)c2ccccc21.Cl [drawing 264]: true
- CCN(CC)CN1C(=O)/C(=C2\Nc3ccccc3C2=O)c2ccccc21 [drawing 252]: false

----------
experimental_details: Time course of conversion to indirubin in FaSSGF at 37° C.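 Further: compound incubated in fasted state simulated gastric fluid, species in samples quantified by UPLC-MS with UV (210–400 nm) and ELS detection.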
Format: physicochemical
condition_summary: FaSSGF (Example 4; table title prints FaSSIF) 37° C., 2 h
Label scheme for starting material (prodrug compound): lower than 50% is criterion not met, 50% and above is criterion met.

* CN(C)C1CCN(CN2C(=O)/C(=C3\Nc4ccccc4C3=O)c3ccccc32)CC1 [drawing 272] | criterion not met
* O=C1/C(=C2/C(=O)N(CN3CCCC3)c3ccccc32)Nc2ccccc21 [drawing 270] | criterion not met
* CCN(CC)CN1C(=O)/C(=C2\Nc3ccccc3C2=O)c2ccccc21 [drawing 267] | criterion not met
* CN(C)CCN(C)CN1C(=O)/C(=C2\Nc3ccccc3C2=O)c2ccccc21 [drawing 268] | criterion not met
* CN(C)CCN(CCN(C)C)CN1C(=O)/C(=C2\Nc3ccccc3C2=O)c2ccccc21 [drawing 271] | criterion not met
* O=C1/C(=C2/C(=O)N(CN3CCCCC3)c3ccccc32)Nc2ccccc21 [drawing 269] | criterion not met
* CN1CCN(CN2C(=O)/C(=C3\Nc4ccccc4C3=O)c3ccccc32)CC1 [drawing 273] | criterion met
* O=C1/C(=C2/C(=O)N(CN3CCC3)c3ccccc32)Nc2ccccc21 [drawing 275] | criterion met
* O=C1/C(=C2/C(=O)N(C(=O)NC3CCOCC3)c3ccccc32)Nc2ccccc21 [drawing 278] | criterion met
* CC(=O)N1CCN(CN2C(=O)/C(=C3\Nc4ccccc4C3=O)c3ccccc32)CC1 [drawing 281] | criterion met
* CNCCNC(=O)N1C(=O)/C(=C2\Nc3ccccc3C2=O)c2ccccc21.Cl [drawing 279] | criterion met
* O=C1/C(=C2/C(=O)N(CN3CCOCC3)c3ccccc32)Nc2ccccc21 [drawing 276] | criterion met
* O=C1/C(=C2/C(=O)N(COS(=O)(=O)O)c3ccccc32)Nc2ccccc21 [drawing 277] | criterion met
* O=C1/C(=C2/C(=O)N(CO)c3ccccc32)Nc2ccccc21 [drawing 274] | criterion not met
